Test system: Acetylcholinesterase
Assay: Inhibition of AChE (unknown origin) by Ellman's method
Conditions: Homo sapiens
Calls of active or inactive are those of the source. The rule behind the calls is not given here.
quantity_kind: inhibition

- compound: "COC(=O)c1ccccc1NC(=O)[C@H](CCSC)NC(=O)c1cnc2c(n1)c(=O)n(C)c(=O)n2C"
  experimental_value: "inactive"
- compound: "C[C@H](NC(=O)c1cnc2c(n1)c(=O)n(C)c(=O)n2C)C(=O)Nc1ccccc1C(N)=O"
  experimental_value: "inactive"
- compound: "COC(=O)c1ccccc1NC(=O)[C@H](CCS(C)(=O)=O)NC(=O)c1cnc2c(n1)c(=O)n(C)c(=O)n2C"
  experimental_value: "inactive"
- compound: "COC(=O)c1ccccc1NC(=O)[C@H](CC[S+](C)[O-])NC(=O)c1cnc2c(n1)c(=O)n(C)c(=O)n2C (some centres undefined)"
  experimental_value: "inactive"

Sourced from ChEMBL document CHEMBL3351960
